- Test system: ATP;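 note: ATP exposure 15 min at 22 °C before imaging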
- measurement_protocol: switch fluorescence ratio, 500 uM ATP over buffer (Cy3 cluster intensity, sum of 5 cycles each) (fold (ratio)); higher = stronger signal-on switching upon ATP binding; sequences stand for … in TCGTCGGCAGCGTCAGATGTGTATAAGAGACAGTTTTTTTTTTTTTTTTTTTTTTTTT…TC
- test_settings: aptamer strand: ATP DNA aptamer (quencher-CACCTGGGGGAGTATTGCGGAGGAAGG + anchor), 100 nM annealed; ATP concentration: 500 uM

sequence_string	switch fluorescence ratio
GACATTAGTC	0.99
CGAAGGTTTA	0.998
TCTTTAATTT	0.985
AGTTGTGCGT	0.981
ATGTATTAGG	0.997
TAAAGGACGG	1.01
CATTAGTCGT	0.996
CTTTTAGGGA	0.989
AAGATGTATT	0.956
TTGAGTTACT	0.981
GGTACTATTT	1
ATGGGATACT	1.03
GGTCCTGGAC	1.02
ATATTTGTTT	0.993
GGAGTTGGG	0.968

Values were extracted from the supplement of paper PMC10126150.
